Reference source for all entries: paper PMC12057046

// screen value lookup, one value per entry
B1: GST-tagged USP8 MIT domain (1-142) [human] / DNAJB6 118-130 peptide, cellulose-bound (SPOT array) [not stated] (parent complex)
chain 1: MPAVASVPKELYLSSSLKDLNKKTEVKPEKISTKSYVHSALKIFKTAEECRLDRDEERAYVLYMKYVTVYNLIKKRPDFKQQQDYFHSILGPGNIKKAVEEAERLSESLKLRYEEAEVRKKLEEKDRQEEAQRLQQKRQETG
chain 2: PFEDFFGNRRGPR

Variants of: B1
Assay: SPOT array alanine scanning; read off a plot

Some variants with known screen value results, for comparison:
               seqstring    val
0  chain 2 PFADFFGNRRGPR  ~-46%
1  chain 2 PFEDFFGNRAGPR  ~-29%
2  chain 2 PAEDFFGNRRGPR   ~10%
3  chain 2 PFEDFFGNARGPR  ~-19%
4  chain 2 PFEDFFGNRRGAR  ~-17%

For the variant shown here, chain 2 PFEDFFGNRRGPA , give the reported screen value.
~20%

For the variant shown here, chain 2 PFEDFAGNRRGPR , give the reported screen value.
~-67%

For the variant shown here, chain 2 PFEDFFANRRGPR , give the reported screen value.
~-40%
